Where do the numbers come from? From the supplement of paper PMC4466140.

Target: SpAbp1-D1
Assay: SPOT peptide array binding signal intensity (averaged, normalized) (arbitrary units (background-subtracted, floor 0; scale differs between SH3 domains)); higher = stronger binding of the SH3 domain to the peptide
Task for the reader: assign each of the following binders its reported SPOT peptide array binding signal intensity.
Give bare numbers.

{"binder": "SSSSSPPPLPTRRDH", "measurement": 22.5}
{"binder": "FPGKKSPRLPHRNKK", "measurement": 756}
{"binder": "QPPLPSSAPPIPTSH", "measurement": 2.5}

Please state, for each entry, its recorded SPOT peptide array binding signal intensity.
1. NLPKRKPPKLQGPFS
2. PVLPPPRSPNRPTLS
3. LKQRFFLMFPKSIIW
4. VNIPSPSSSPPPIPK

498
70
69
1
